Reference source for all entries: patent US5698411A

System: lymphocytes
Experiment: aberrant enzyme activities in febrile children, lymphocytes (Table 7)
Assay type: cell-based, human
Conditions: P89 Viral Stomatitis
Field: aberrant enzyme activity, LYMPHS. Provide a value for each of the compounds that follow.

With lymphocytes as the test system, provide measured aberrant enzyme activity, LYMPHS for this compound: O=C1OC2(c3ccc(OC4O[C@H](CO)[C@H](O)[C@H](O)[C@H]4O)cc3Oc3cc(OC4O[C@H](CO)[C@H](O)[C@H](O)[C@H]4O)ccc32)c2ccccc21 (stereo partly drawn) .smallcircle.

Param request: aberrant enzyme activity, LYMPHS | system lymphocytes | item O=C1OC2(c3ccc(OC4O[C@H](CO)[C@@H](O)[C@H](O)[C@H]4O)cc3Oc3cc(OC4O[C@H](CO)[C@@H](O)[C@H](O)[C@H]4O)ccc32)c2ccccc21 (stereo partly drawn) .smallcircle.

----------
Test system: granulocytes
Assay: peptidase activity in leukemia and non-leukemia patients, granulocytes (Table 6C)
Type: cell-based, human
Set-up: unit not given here
Conditions: N200 normal
# enzyme activity, Grans >= 3 gives Satisfied, anything below gives Not satisfied

Test whether the molecule C[C@@H](O)[C@H](N)C(=O)N1CCC[C@H]1C(=O)Nc1ccc2c(c1)Oc1cc(NC(=O)[C@@H]3CCCN3C(=O)[C@@H](N)[C@@H](C)O)ccc1C21OC(=O)c2ccccc21 [TP, (H-L-Thr--Pro)2 Rho 110 .2TFA] records enzyme activity, Grans of 3 or higher. Satisfied

Reported enzyme activity, Grans reaches at least 3 for CC(C)C[C@H](N)C(=O)NCC(=O)Nc1ccc2c(c1)Oc1cc(NC(=O)CNC(=O)[C@@H](N)CC(C)C)ccc1C21OC(=O)c2ccccc21 [LG] ? Satisfied

Please indicate if the recorded enzyme activity, Grans for CC(C)[C@H](N)C(=O)N[C@@H](CO)C(=O)Nc1ccc2c(c1)Oc1cc(NC(=O)[C@H](CO)NC(=O)[C@@H](N)C(C)C)ccc1C21OC(=O)c2ccccc21 [VS, (H-L-Val--Ser)2 Rho 110 .2TFA] meets or exceeds 3. Not satisfied

hey, is enzyme activity, Grans for this one >= 3? NCC(=O)N1CCC[C@H]1C(=O)Nc1ccc2c(c1)Oc1cc(NC(=O)[C@@H]3CCCN3C(=O)CN)ccc1C21OC(=O)c2ccccc21 [GP, (H-Gly--Pro)2 Rho .2TFA] Satisfied

Does the molecule NC(=O)CC[C@H](N)C(=O)N[C@@H](CO)C(=O)Nc1ccc2c(c1)Oc1cc(NC(=O)[C@H](CO)NC(=O)[C@@H](N)CCC(N)=O)ccc1C21OC(=O)c2ccccc21 [QS, (H-L-Gln--Ser)2 Rho 110 .2TFA] have recorded enzyme activity, Grans that is 3 or more? Not satisfied

Decide: enzyme activity, Grans of C[C@H](N)C(=O)Nc1ccc2c(c1)Oc1cc(NC(=O)[C@H](C)N)ccc1C21OC(=O)c2ccccc21 [ALA, (Ala)2 Rho 110] >= 3? Satisfied

----------
System: lymphocytes
Experiment: peptidase activity in leukemia and non-leukemia patients, lymphocytes (Table 6C)
Type: cell-based, human
Set-up: unit not given here
Details: J19 11/27/91 C L L
Answer each item with its documented enzyme activity, Lymphs.
Enter the number alone.

Specify reported enzyme activity, Lymphs for the molecule shown: CC(C)[C@H](N)C(=O)N[C@@H](CO)C(=O)Nc1ccc2c(c1)Oc1cc(NC(=O)[C@H](CO)NC(=O)[C@@H](N)C(C)C)ccc1C21OC(=O)c2ccccc21 [VS, (H-L-Val--Ser)2 Rho 110 .2TFA] 0.01

For the molecule `C[C@H](N)C(=O)Nc1ccc2c(c1)Oc1cc(NC(=O)[C@H](C)N)ccc1C21OC(=O)c2ccccc21` , give its measured enzyme activity, Lymphs value. 47.78

Answer with reported enzyme activity, Lymphs of `CC(C)C[C@H](N)C(=O)NCC(=O)Nc1ccc2c(c1)Oc1cc(NC(=O)CNC(=O)[C@@H](N)CC(C)C)ccc1C21OC(=O)c2ccccc21` 0.02

Annotate the molecule NC(=O)CC[C@H](N)C(=O)N[C@@H](CO)C(=O)Nc1ccc2c(c1)Oc1cc(NC(=O)[C@H](CO)NC(=O)[C@@H](N)CCC(N)=O)ccc1C21OC(=O)c2ccccc21 [QS, (H-L-Gln--Ser)2 Rho 110 .2TFA] with its measured enzyme activity, Lymphs. 0.06

Return enzyme activity, Lymphs (reported value) for this molecule: O=C1OC2(c3ccc(NC(=O)[C@@H]4CCCN4)cc3Oc3cc(NC(=O)[C@@H]4CCCN4)ccc32)c2ccccc21 [PRO, (H-L-Pro)2 --Rho 110 .2TFA] 0.44

----------
Tested on: lymphocytes
Test: peptidase activity in leukemia and non-leukemia patients, lymphocytes (Table 6C)
Format: cell-based, human
Design: unit not given here
Settings: N199 normal
hey, just use label 1 if measured enzyme activity, Lymphs is less than 2, otherwise label 0

# TODO verify enzyme activity, Lymphs < 2 strictly for this compound: NCC(=O)N1CCC[C@H]1C(=O)Nc1ccc2c(c1)Oc1cc(NC(=O)[C@@H]3CCCN3C(=O)CN)ccc1C21OC(=O)c2ccccc21 [GP, (H-Gly--Pro)2 Rho .2TFA] label 0

For this compound, is enzyme activity, Lymphs lower than 2? NCCCC[C@H](N)C(=O)Nc1ccc2c(c1)Oc1cc(NC(=O)[C@@H](N)CCCCN)ccc1C21OC(=O)c2ccccc21 [LYS, (H-L-Lys)2 Rho 110 .4TFA] label 1

Consider CC(C)[C@H](N)C(=O)N[C@@H](CO)C(=O)Nc1ccc2c(c1)Oc1cc(NC(=O)[C@H](CO)NC(=O)[C@@H](N)C(C)C)ccc1C21OC(=O)c2ccccc21 [VS, (H-L-Val--Ser)2 Rho 110 .2TFA] . Does its enzyme activity, Lymphs lie strictly below 2? label 1

I wonder whether NC(=O)CC[C@H](N)C(=O)N[C@@H](CO)C(=O)Nc1ccc2c(c1)Oc1cc(NC(=O)[C@H](CO)NC(=O)[C@@H](N)CCC(N)=O)ccc1C21OC(=O)c2ccccc21 [QS, (H-L-Gln--Ser)2 Rho 110 .2TFA] has enzyme activity, Lymphs below 2. Can you tell? label 1

hey, is enzyme activity, Lymphs for C[C@@H](O)[C@H](N)C(=O)N1CCC[C@H]1C(=O)Nc1ccc2c(c1)Oc1cc(NC(=O)[C@@H]3CCCN3C(=O)[C@@H](N)[C@@H](C)O)ccc1C21OC(=O)c2ccccc21 [TP, (H-L-Thr--Pro)2 Rho 110 .2TFA] lower than 2 or not? label 1

Field: below-cutoff. Rule: recorded enzyme activity, Lymphs strictly less than 2. Subject: `CC(C)C[C@H](N)C(=O)NCC(=O)Nc1ccc2c(c1)Oc1cc(NC(=O)CNC(=O)[C@@H](N)CC(C)C)ccc1C21OC(=O)c2ccccc21` label 1

A record lists `C[C@H](N)C(=O)Nc1ccc2c(c1)Oc1cc(NC(=O)[C@H](C)N)ccc1C21OC(=O)c2ccccc21` . Is its enzyme activity, Lymphs below 2? label 0

----------
Field: enzyme activity, Grans. Provide a value for each of the molecules that follow.
Tested on: granulocytes
Assay: peptidase activity in leukemia and non-leukemia patients, granulocytes (Table 6C)
Format: cell-based, human
Set-up: unit not given here
Conditions: J4 12/3/91 acute leuk.
Provide a numeric answer; units are not to be included.

Please indicate enzyme activity, Grans recorded for C[C@H](N)C(=O)Nc1ccc2c(c1)Oc1cc(NC(=O)[C@H](C)N)ccc1C21OC(=O)c2ccccc21 [ALA, (Ala)2 Rho 110] 138.89

Provide one value: measured enzyme activity, Grans of C[C@@H](O)[C@H](N)C(=O)N1CCC[C@H]1C(=O)Nc1ccc2c(c1)Oc1cc(NC(=O)[C@@H]3CCCN3C(=O)[C@@H](N)[C@@H](C)O)ccc1C21OC(=O)c2ccccc21 [TP, (H-L-Thr--Pro)2 Rho 110 .2TFA] 1.93

# return recorded enzyme activity, Grans for input CC(C)[C@H](N)C(=O)N[C@@H](CO)C(=O)Nc1ccc2c(c1)Oc1cc(NC(=O)[C@H](CO)NC(=O)[C@@H](N)C(C)C)ccc1C21OC(=O)c2ccccc21 [VS, (H-L-Val--Ser)2 Rho 110 .2TFA] 0.23

Specify enzyme activity, Grans for NC(=O)CC[C@H](N)C(=O)N[C@@H](CO)C(=O)Nc1ccc2c(c1)Oc1cc(NC(=O)[C@H](CO)NC(=O)[C@@H](N)CCC(N)=O)ccc1C21OC(=O)c2ccccc21 [QS, (H-L-Gln--Ser)2 Rho 110 .2TFA] and stop. 0.19

Return reported enzyme activity, Grans. Input molecule: NCC(=O)N1CCC[C@H]1C(=O)Nc1ccc2c(c1)Oc1cc(NC(=O)[C@@H]3CCCN3C(=O)CN)ccc1C21OC(=O)c2ccccc21 [GP, (H-Gly--Pro)2 Rho .2TFA] 1.28

----------
Hi there, I'd appreciate the recorded aberrant enzyme activity, MONOS for every entry that follows.
System: monocytes
Test: aberrant enzyme activities in febrile children, monocytes (Table 7)
Assay type: cell-based, human
Settings: P96 Viral Syndrome

Quick one: give measured aberrant enzyme activity, MONOS for `C[C@H](NC(=O)[C@@H](N)CCCCN)C(=O)Nc1ccc2c(c1)Oc1cc(NC(=O)[C@H](C)NC(=O)[C@@H](N)CCCCN)ccc1C21OC(=O)c2ccccc21` .smallcircle.

Please indicate aberrant enzyme activity, MONOS recorded for N=C(N)NCCC[C@H](N)C(=O)Nc1ccc2c(c1)Oc1cc(NC(=O)[C@@H](N)CCCNC(=N)N)ccc1C21OC(=O)c2ccccc21 (stereo partly drawn) [ARG, (H-L-Arg)2 Rho 110 .4TFA] .smallcircle.
